- target-under-test: T1, recombinant human CSF-1R (form not stated) (human, UniProt P07333 20-512, limits assumed)
- T1 construct: for the ELISA no species is stated; also called recombinant CSF-1R; recombinant CSF-1R protein
- T1 sequence (P07333 20-512 limits assumed): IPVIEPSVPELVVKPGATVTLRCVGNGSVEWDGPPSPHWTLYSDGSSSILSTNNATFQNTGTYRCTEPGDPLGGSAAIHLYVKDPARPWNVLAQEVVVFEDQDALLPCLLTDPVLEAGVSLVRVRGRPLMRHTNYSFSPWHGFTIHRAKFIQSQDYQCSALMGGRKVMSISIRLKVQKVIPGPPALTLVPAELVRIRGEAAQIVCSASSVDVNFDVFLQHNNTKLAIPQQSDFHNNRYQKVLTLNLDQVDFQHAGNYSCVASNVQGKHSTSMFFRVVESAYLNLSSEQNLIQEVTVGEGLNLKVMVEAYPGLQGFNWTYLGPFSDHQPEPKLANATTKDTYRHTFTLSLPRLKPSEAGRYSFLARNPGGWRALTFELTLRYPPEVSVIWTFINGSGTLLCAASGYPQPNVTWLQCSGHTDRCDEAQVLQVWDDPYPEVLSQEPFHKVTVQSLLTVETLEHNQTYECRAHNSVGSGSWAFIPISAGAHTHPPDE
- test-description: BIAcore, experiment 3 of 3
outcome-measure: Kd (pM)
Value expressed in pM; do not type the unit.

Here are 3 binders together with their reported answers.
[[record]]
binder = "969gH2gL4 (antibody, human IgG4 S228P, kappa, name in Kabat numbering, V domains shown, Humanised IgG4 (S241P)/kappa; positions are Kabat; also called Ab969.g7) VH: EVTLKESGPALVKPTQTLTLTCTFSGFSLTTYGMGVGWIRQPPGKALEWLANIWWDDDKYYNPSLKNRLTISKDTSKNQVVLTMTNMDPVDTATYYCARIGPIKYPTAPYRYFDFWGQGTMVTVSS VL: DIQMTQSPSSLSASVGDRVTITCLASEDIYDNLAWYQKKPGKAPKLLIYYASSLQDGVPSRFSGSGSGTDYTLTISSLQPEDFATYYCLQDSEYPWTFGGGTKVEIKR"
unit_name = "pM"
result_number = 4.6

[[record]]
binder = "969gH2gL8 (antibody, human IgG4 S228P, kappa, name in Kabat numbering, V domains shown, Humanised IgG4 (S241P)/kappa, no donor residues; position is Kabat; also called Ab969.g4) VH: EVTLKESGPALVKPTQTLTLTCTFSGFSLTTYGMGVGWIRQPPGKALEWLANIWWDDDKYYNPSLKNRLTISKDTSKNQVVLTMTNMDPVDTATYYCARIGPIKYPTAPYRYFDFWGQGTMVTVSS VL: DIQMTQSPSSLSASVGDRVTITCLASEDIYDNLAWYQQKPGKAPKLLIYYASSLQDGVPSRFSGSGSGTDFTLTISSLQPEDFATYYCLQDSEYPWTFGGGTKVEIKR"
unit_name = "pM"
result_number = 2.5

[[record]]
binder = "chimeric antibody 969 (rat variable regions, human gamma-4 heavy chain constant region and human kappa chain constant region) (antibody, human IgG4, V domains shown, Alexa-488 label in the cell-based affinity assay; not carried by the letters., Full-length human IgG4 (S241P)/kappa chimeric; also called Ab969) VH: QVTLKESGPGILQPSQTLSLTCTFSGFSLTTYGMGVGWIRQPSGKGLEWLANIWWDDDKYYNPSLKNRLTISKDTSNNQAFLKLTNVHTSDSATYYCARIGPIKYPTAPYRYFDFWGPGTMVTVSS VL: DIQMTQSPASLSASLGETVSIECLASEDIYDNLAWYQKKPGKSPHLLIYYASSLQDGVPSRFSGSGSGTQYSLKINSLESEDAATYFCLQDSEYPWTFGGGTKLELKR"
unit_name = "pM"
result_number = 3.6


Supply recorded Kd for 969gH1gL1 (antibody, human IgG4 S228P, kappa, name in Kabat numbering, V domains shown, Humanised IgG4 (S241P)/kappa; positions are Kabat; also called Ab969.g1) VH: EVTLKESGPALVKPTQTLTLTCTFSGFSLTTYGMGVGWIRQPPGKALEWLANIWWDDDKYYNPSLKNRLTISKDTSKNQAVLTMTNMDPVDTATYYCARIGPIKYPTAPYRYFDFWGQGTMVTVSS VL: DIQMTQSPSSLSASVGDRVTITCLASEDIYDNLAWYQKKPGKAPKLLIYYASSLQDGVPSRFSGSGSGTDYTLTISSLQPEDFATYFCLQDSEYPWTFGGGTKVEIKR here.
3.9

Provide Kd value for the following binder: 969gH2gL1 (antibody, human IgG4 S228P, kappa, name in Kabat numbering, V domains shown, Humanised IgG4 (S241P)/kappa; positions are Kabat; also called Ab969.g6) VH: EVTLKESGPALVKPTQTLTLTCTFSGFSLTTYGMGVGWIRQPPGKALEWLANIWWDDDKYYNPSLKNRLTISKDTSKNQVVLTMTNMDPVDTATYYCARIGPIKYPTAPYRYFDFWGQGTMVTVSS VL: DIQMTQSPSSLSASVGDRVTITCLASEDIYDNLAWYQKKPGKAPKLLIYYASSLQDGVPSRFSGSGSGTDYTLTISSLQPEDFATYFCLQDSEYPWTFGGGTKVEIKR
2.6
